Procedure text: Saturation solubility of samples in FaSSIF solution
Assay type: physicochemical
Test settings: FaSSIF pH 6.5, room temperature overnight
Measurement label: FaSSIF (pH = 6.5) (μg/mL)

// worked examples, FaSSIF (pH = 6.5) (μg/mL) included
{"Compound": "Cn1cc2c(n1)c(=O)n(-c1cccc3[nH]ncc13)c1nc(C(F)(F)F)ccc21 [Compound B181]", "Assay value": 20.7}
{"Compound": "Cn1cc2c(n1)c(=O)n(-c1ccccc1Cl)c1nc(C(F)(F)F)ccc21 [Compound B182]", "Assay value": 17.6}

1. Cn1cc2c(n1)c(=O)n(-c1cccc3[nH]ncc13)c1cc(Cl)c(F)cc21 [Compound B257]
2. Cn1cc2c(n1)c(=O)n(-c1cccnc1C1CC1)c1cc(Cl)c(F)cc21 [Compound B340]
3. Cn1cc2c(n1)c(=O)n(-c1cccc3[nH]ncc13)c1cc(Cl)c(C#N)cc21 [Compound B258]
# desc sort on FaSSIF (pH = 6.5) (μg/mL) across 3 compounds Would you mind listing the labels in the order asked for? 1, 3, 2

I. Cn1cc2c(n1)c(=O)n(-c1ccc(OC(F)F)cc1)c1nc(C(F)(F)F)ccc21 [Compound B188]
II. Cn1cc2c(n1)c(=O)n(-c1cccc3[nH]ncc13)c1cc(Cl)ccc21 [Compound B60]
Which of the two gives a bigger number for FaSSIF (pH = 6.5) (μg/mL): I or II ? // return label of chosen record II
